procedure_text: self-splicing fitness, log relative to wild type (ln ratio); higher = more splicing; Tetrahymena group I intron in knt gene, E. coli kanamycin selection, DiMSum; sequences stand for … in CUCUCU…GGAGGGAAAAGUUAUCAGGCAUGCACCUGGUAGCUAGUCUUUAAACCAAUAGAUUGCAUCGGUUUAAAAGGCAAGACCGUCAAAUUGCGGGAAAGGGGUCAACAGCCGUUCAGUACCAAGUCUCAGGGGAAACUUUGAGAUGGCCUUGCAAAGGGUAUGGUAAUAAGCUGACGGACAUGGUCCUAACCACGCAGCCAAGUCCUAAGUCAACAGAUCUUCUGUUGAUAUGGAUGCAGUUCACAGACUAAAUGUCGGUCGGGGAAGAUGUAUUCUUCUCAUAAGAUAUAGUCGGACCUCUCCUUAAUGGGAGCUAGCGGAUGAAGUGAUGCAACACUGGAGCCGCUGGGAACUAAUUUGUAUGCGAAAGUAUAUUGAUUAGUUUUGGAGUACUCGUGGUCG;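 further: selection with 25 µg/mL kanamycin versus none on LB agar overnight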
applied_conditions: 30 °C
observable: self-splicing fitness (ln)
Returns: the value as a bare number; no unit string appended.

Here is how some sequences turned out for self-splicing fitness (ln).
[
  {
    "sequence_entry": "CAUCAGCAAUAUUACGGGUG",
    "self-splicing fitness (ln)": -3.28
  },
  {
    "sequence_entry": "GUUUAGCAAUAUUACGGAGU",
    "self-splicing fitness (ln)": -2.3
  },
  {
    "sequence_entry": "UUCUAGCAAUAUUACGGCGC",
    "self-splicing fitness (ln)": -2.84
  }
]

// lookup self-splicing fitness (ln) for GUGGAGCAAUAUUACGCCGG
-2.57

---

procedure_text: self-splicing fitness, log relative to wild type (ln ratio); higher = more splicing; Tetrahymena group I intron in knt gene, E. coli kanamycin selection, DiMSum; sequences stand for … in CUCUCU…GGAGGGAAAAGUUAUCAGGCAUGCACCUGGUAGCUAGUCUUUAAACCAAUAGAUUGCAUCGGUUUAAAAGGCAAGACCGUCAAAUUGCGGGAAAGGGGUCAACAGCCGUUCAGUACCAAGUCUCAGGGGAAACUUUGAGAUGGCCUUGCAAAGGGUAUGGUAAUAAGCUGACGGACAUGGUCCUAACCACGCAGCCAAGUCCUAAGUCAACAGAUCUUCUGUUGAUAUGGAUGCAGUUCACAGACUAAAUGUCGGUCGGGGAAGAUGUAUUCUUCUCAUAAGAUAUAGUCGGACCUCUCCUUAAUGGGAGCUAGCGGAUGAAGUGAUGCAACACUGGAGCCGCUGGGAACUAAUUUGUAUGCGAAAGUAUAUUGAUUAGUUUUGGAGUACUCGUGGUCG
applied_conditions: 37 °C
observable: self-splicing fitness (ln)

[
  {
    "sequence_entry": "CACUAGCAAUAUUACGGGGU",
    "self-splicing fitness (ln)": -2.37
  },
  {
    "sequence_entry": "GCCGAGCAAUAUUACGCUGG",
    "self-splicing fitness (ln)": -2.07
  }
]

// returns reported self-splicing fitness (ln) for input GUUGAGCAAUAUUACGGUAC
-1.79

Same again, this time with CAGUAGCAAUAUUACGGCCU
-1.67

Would you kindly repeat that for AUCCAGCAAUAUUACGACGA ?
0.0611

Same thing, different sequence: GUAUAGCAAUAUUACGCCCG
-1.37

---

procedure_text: self-splicing fitness, log relative to wild type (ln ratio); higher = more splicing; Tetrahymena group I intron in knt gene, E. coli kanamycin selection, DiMSum; sequences stand for … in CUCUCU…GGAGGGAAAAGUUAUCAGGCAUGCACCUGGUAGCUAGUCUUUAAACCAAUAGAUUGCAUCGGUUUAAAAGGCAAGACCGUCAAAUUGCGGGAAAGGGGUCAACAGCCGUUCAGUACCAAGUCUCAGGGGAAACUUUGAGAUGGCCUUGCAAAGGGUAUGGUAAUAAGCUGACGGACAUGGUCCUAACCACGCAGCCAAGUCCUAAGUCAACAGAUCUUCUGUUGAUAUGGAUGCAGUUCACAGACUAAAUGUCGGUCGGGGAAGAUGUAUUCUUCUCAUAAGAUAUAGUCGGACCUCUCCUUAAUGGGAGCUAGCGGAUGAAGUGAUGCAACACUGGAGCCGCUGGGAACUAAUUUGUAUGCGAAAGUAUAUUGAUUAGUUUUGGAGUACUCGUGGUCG
applied_conditions: 37 °C
self-splicing fitness (ln) vs -1: at or above is fulfilled, below is not fulfilled.

[
  {
    "sequence_entry": "AUAUAGCAAUAUUACGGUGC",
    "assigned_category": "not fulfilled"
  }
]

Please tell me: is the sequence UUCCAGCAAUAUUACGGGAA at or over -1 in terms of self-splicing fitness (ln)?
not fulfilled

Entry to check: CUUCAGCAAUAUUACGAUUG
fulfilled

Same question for AUGAAGCAAUAUUACGGUUA please.
fulfilled

Same question, UAGCAGCAAUAUUACGCUGG this time
not fulfilled

Moving on to the next sequence: GCCCAGCAAUAUUACGUUGG
not fulfilled

Follow-up entry: AACGAGCAAUAUUACGUUGA
not fulfilled

Entry to check: ACAUAGCAAUAUUACGCAUG
not fulfilled

Again, but for CUUAAGCAAUAUUACGUGUG
fulfilled

---

procedure_text: self-splicing fitness, log relative to wild type (ln ratio); higher = more splicing; Tetrahymena group I intron in knt gene, E. coli kanamycin selection, DiMSum; sequences stand for … in CUCUCU…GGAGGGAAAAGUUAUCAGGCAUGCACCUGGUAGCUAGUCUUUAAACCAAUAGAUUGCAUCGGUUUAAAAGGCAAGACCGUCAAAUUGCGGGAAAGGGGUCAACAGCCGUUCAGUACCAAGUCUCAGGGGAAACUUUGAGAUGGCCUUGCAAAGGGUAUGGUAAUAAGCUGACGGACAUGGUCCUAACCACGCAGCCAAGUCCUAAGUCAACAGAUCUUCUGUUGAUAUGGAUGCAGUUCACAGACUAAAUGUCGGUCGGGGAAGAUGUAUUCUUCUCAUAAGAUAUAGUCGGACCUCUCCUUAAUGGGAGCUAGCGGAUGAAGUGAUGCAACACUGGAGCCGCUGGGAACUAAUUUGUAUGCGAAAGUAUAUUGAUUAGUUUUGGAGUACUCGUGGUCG
applied_conditions: 37 °C
Catalogue of self-splicing fitness (ln) values
Write no unit; give the number alone.

Example entries begin here.
[
  {
    "sequence_entry": "ACGUAGCAAUAUUACGGCGU",
    "observable": "self-splicing fitness (ln)",
    "val": -2.48
  },
  {
    "sequence_entry": "GCAGAGCAAUAUUACGGUCG",
    "observable": "self-splicing fitness (ln)",
    "val": -1.44
  },
  {
    "sequence_entry": "AGGUAGCAAUAUUACGGCUU",
    "observable": "self-splicing fitness (ln)",
    "val": -0.184
  },
  {
    "sequence_entry": "UUAAAGCAAUAUUACGCCUC",
    "observable": "self-splicing fitness (ln)",
    "val": -1.43
  },
  {
    "sequence_entry": "GAAGAGCAAUAUUACGGCAU",
    "observable": "self-splicing fitness (ln)",
    "val": -1.99
  },
  {
    "sequence_entry": "AGUAAGCAAUAUUACGGAAG",
    "observable": "self-splicing fitness (ln)",
    "val": -2.2
  },
  {
    "sequence_entry": "GCCAAGCAAUAUUACGCAUC",
    "observable": "self-splicing fitness (ln)",
    "val": 0.0458
  },
  {
    "sequence_entry": "GCUUAGCAAUAUUACGAAAC",
    "observable": "self-splicing fitness (ln)",
    "val": -0.448
  },
  {
    "sequence_entry": "CCAAAGCAAUAUUACGGCGG",
    "observable": "self-splicing fitness (ln)",
    "val": -2.48
  },
  {
    "sequence_entry": "UGUGAGCAAUAUUACGAUGG",
    "observable": "self-splicing fitness (ln)",
    "val": -2.27
  }
]

Recorded self-splicing fitness (ln) for UAUCAGCAAUAUUACGGGAA , please?
-0.124

Ok, now UUUAAGCAAUAUUACGGGGC
-3.55

Can you handle UGCAAGCAAUAUUACGGCCA next?
1.07

Here is the next sequence: UCGAAGCAAUAUUACGGGCA
-0.507

Would you mind doing AACAAGCAAUAUUACGAGUC as well?
-1.89

Item: AUCAAGCAAUAUUACGGAAC
-2.3

---

procedure_text: self-splicing fitness, log relative to wild type (ln ratio); higher = more splicing; Tetrahymena group I intron in knt gene, E. coli kanamycin selection, DiMSum; sequences stand for … in CUCUCU…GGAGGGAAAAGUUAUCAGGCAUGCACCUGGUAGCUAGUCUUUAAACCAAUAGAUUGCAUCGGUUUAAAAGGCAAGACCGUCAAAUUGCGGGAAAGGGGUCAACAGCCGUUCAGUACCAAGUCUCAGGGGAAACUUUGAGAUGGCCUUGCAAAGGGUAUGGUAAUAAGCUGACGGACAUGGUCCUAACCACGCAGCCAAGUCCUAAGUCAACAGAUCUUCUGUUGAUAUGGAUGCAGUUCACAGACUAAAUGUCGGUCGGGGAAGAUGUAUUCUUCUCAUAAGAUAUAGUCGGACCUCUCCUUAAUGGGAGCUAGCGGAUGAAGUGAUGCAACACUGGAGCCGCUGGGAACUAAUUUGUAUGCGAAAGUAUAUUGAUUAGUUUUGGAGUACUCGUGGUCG
applied_conditions: 37 °C
Our labelling divides records by self-splicing fitness (ln) into ranges: bucket A (below -1), bucket B (-1 to below -0.3), bucket C (-0.3 or more)

Worked set:
[
  {
    "sequence_entry": "CGCUAGCAAUAUUACGGCUG",
    "assigned_category": "bucket C"
  },
  {
    "sequence_entry": "UGCAAGCAAUAUUACGUAAC",
    "assigned_category": "bucket C"
  },
  {
    "sequence_entry": "GCGGAGCAAUAUUACGUCUC",
    "assigned_category": "bucket A"
  }
]

Returns: class label. Input: UAAUAGCAAUAUUACGGCGG
bucket C

Also, GGUUAGCAAUAUUACGGUGC please.
bucket C

Further, for GGUCAGCAAUAUUACGUACU ?
bucket B

Also, UAUGAGCAAUAUUACGUGUC please.
bucket A

Here is the next sequence: ACGCAGCAAUAUUACGGCAU
bucket C

Let us now turn to GCGUAGCAAUAUUACGGCCA
bucket C

How about UACGAGCAAUAUUACGGGCC ?
bucket A

Try this sequence next: CAGGAGCAAUAUUACGGAGU
bucket A

Would you kindly repeat that for UAAGAGCAAUAUUACGGUGA ?
bucket A

Now the same for CAGUAGCAAUAUUACGGCUA
bucket A

Next sequence: CAGUAGCAAUAUUACGGAGG
bucket B

Proceed to GUAGAGCAAUAUUACGUAUA
bucket B
